Field: TGI. Provide a value for each of the molecules that follow.
test system: CAKI-1 renal; assay: NCI tumour cell line growth inhibition, 48 h

Some solved entries appear below for comparison.
NC(=NC1CCCCCCC1)c1ccc(N2CCN(c3ccc(C(N)=NC4CCCCCCC4)cc3)CC2)cc1    63.1 µM
O=c1c2cc(Br)ccc2nc(-c2ccccc2Cl)n1NCC1(O)OCC(O)C(O)C1O (stereo unspecified)    > 100 µM
O=c1[nH]/c(=C/c2ccc(OCc3ccccc3)cn2)c(=O)[nH]/c1=C/c1ccc(Cl)cc1    > 56.6 µM
Cn1ccc2c(c1=O)C(=O)c1nccc3c1c-2nc1ccccc13    2.85 µM

Please give TGI for each item listed below.
1. COc1ccc(C(Cc2cc(OC)c(OC)c(OC)c2)C(=O)O)cc1 (stereo unspecified)
2. N#CCCSC1SC(=C2SC3=C(SCCS3)S2)SC1SCCC#N (stereo unspecified)
3. O=C(c1ccco1)n1c2ccc(Br)cc2c2nc3ccccc3nc21
4. NC1CC(N)c2c(Br)sc(Br)c21 (stereo unspecified)
5. Cc1nc2ccc(F)cc2c2c1CCO2

Solution:
> 100 µM
> 100 µM
> 100 µM
> 100 µM
96 µM

Please give TGI for each item listed below.
1. N=c1c2c(-c3ccccc3)c(-c3ccccc3)n(Cc3ccccc3)c2ncn1CCCO
2. Cc1nc(Nc2ccc(F)cc2)c2sc(=S)n(-c3ccc(F)cc3)c2n1
3. COc1ccc(-c2cnnn2-c2cc(OC)c3c(c2)OCO3)cc1
4. N#C/C(=C1\NN=C(N)C(c2ccc(Cl)cc2)=C1O)c1ccc(Cl)cc1

Solution:
["6.57 µM", "35.5 µM", "> 100 µM", "> 100 µM"]

---

Field: TGI. Provide a value for each of the compounds that follow.
tested on: UACC-62 melanoma; assay: NCI tumour cell line growth inhibition, 48 h

Some solved entries appear below for comparison.
COc1ccc(C/C(C)=C(\c2ccc(OCCN3CCOCC3)cc2)c2ccc(OC(=O)Cc3ccccc3)cc2)cc1    1.06 µM
c1ccc(-c2cs[s+]c2)cc1    > 100 µM
CC1CC(c2cccc3c2OCO3)=Nc2ccccc2S1 (stereo not drawn)    > 100 µM

Please give TGI for each item listed below.
1. O=C(O)C(O)Cc1ccccn1 (stereo not drawn)
2. CCCCNc1c(CN)cnc2cc(Cl)ccc12
3. COc1cccc(Nc2nc(-c3cccs3)nc3ccc(Br)cc23)c1
4. c1ccc(-c2ccc(-c3cc4ccccc4[nH]3)cc2)cc1
5. N#Cc1cccc(C(=O)Nc2cccc(NC(=O)c3cccc(C#N)c3)c2)c1

Solution:
["> 100 µM", "29 µM", "> 100 µM", "> 100 µM", "> 100 µM"]

---

Field: TGI. Provide a value for each of the compounds that follow.
system: LXFL 529 NSCLC; assay: NCI tumour cell line growth inhibition, 48 h

Some solved entries appear below for comparison.
COC(=O)C1=C(C(=O)OC)C2C(C)=CC(C)=CN2C(C#N)=C(SC)S1 (stereo not given)    37.6 µM
N#C/C(=C1\NN=C(N)C(c2ccc(Cl)cc2)=C1O)c1ccc(Cl)cc1    > 100 µM
O=C1C=C[C@@]23C[C@@H](Nc4c(O)c5c6c(c42)=NCCC=6C=N5)SC3=C1    3.24 µM
COc1ccc(N(C)Sc2ccccc2)cc1    > 100 µM
CN(C(=O)c1ccc(Cl)cc1)C(=S)N1CCN(c2ccccn2)CC1    > 100 µM
COc1ccc2cc1Oc1ccc(cc1)C[C@@H]1c3cc(c(OC)cc3CCN1C)Oc1c(OC)c(OC)cc3c1[C@@H](C2)N(C)CC3    32.7 µM
CC(/C(=N/NC(=O)C(N)=O)c1c(Cl)ccc(Cl)c1O)C1(O)C(=O)Nc2ccccc21 (stereo not given)    > 100 µM
Cc1cc(C)c2c(c1)Nc1ccccc1P2c1ccccc1 (stereo not given)    > 100 µM

Please give TGI for each item listed below.
1. O=C(O)C12C3C4C1C1C2C3C1(Br)C41OCCO1 (stereo not given)
2. O=c1c2cc(Br)ccc2nc(-c2ccccc2Cl)n1NCC1(O)OCC(O)C(O)C1O (stereo not given)

Solution:
> 100 µM
> 100 µM
